molecular target: full-length recombinant mouse PAD4 (mouse) (UniProt Q9Z183); test: ELISA, mouse PAD4 on plate, antibody 0.25 ug/mL
Sequence (Q9Z183 whole entry): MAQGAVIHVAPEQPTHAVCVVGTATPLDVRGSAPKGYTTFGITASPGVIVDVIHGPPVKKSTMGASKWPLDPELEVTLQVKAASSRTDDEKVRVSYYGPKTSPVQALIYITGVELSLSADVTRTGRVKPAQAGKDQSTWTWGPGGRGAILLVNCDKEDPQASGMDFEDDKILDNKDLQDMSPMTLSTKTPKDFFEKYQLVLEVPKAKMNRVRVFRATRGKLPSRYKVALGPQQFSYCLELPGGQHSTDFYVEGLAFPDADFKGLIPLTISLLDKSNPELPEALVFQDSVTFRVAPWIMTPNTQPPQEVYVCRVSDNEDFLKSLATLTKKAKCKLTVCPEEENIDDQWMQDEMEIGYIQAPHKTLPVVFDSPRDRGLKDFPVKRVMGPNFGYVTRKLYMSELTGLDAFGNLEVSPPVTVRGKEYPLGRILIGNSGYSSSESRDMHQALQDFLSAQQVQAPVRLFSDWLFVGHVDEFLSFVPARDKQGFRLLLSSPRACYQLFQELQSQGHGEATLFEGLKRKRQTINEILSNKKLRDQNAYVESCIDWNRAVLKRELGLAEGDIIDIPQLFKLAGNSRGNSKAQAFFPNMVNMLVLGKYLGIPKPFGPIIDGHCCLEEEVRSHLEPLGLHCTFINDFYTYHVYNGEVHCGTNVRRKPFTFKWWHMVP
Result type: absorbance 490 nm/630 nm (OD)
Field: numeric (OD). Do not append units.

{"Binder": "G6 (antibody, IgG1, V domains shown) VH: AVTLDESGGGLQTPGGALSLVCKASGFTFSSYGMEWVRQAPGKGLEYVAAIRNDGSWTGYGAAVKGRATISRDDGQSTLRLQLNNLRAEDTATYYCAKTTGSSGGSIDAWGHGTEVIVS VL: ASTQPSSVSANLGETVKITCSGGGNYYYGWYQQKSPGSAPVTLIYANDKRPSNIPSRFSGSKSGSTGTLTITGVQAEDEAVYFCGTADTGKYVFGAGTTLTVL", "absorbance 490 nm/630 nm [OD]": 2.27}
{"Binder": "H7 (antibody, IgG1, V domains shown) VH: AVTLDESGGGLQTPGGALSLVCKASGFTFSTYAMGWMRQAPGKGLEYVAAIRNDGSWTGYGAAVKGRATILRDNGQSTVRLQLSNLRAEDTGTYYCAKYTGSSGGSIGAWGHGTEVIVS VL: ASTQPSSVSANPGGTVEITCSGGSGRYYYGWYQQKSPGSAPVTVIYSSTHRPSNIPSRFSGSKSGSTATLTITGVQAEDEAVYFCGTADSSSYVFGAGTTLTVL", "absorbance 490 nm/630 nm [OD]": 2.31}

query: Supply recorded absorbance 490 nm/630 nm for G8 (antibody, IgG1, V domains shown) VH: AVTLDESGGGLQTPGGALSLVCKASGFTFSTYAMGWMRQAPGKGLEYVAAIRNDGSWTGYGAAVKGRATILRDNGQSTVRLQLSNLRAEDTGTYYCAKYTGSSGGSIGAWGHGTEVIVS VL: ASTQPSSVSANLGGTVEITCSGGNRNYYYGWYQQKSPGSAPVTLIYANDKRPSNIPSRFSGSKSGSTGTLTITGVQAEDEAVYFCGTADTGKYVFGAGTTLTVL here.
result: 2.25

meta.source: patent US20230192890A1
